Hey, just so you know, these numbers are from the supplement of paper PMC8253809.

- Test system: DIPGX29 (H3.3 K27M diffuse intrinsic pontine glioma line)
- procedure.text: growth inhibition (% activity, log2 RLU normalised to DMSO / staurosporine); higher = more growth inhibition
- test.settings: 33 µM
growth inhibition overview
Give the value in % but do not write % after it.

{"molecule": "CN(C)C(=N)NC(=N)N", "observed.value": -1.21}
{"molecule": "C[C@@H]1CCN(C(=O)CC#N)C[C@@H]1N(C)c1ncnc2[nH]ccc12", "observed.value": 0.671}
{"molecule": "CC(C(=O)O)c1cccc(C(=O)c2ccccc2)c1 (stereo unspecified)", "observed.value": -0.509}
{"molecule": "CC(C)(C)C(=O)C(Oc1ccc(Cl)cc1)n1ccnc1 (stereo unspecified)", "observed.value": 0.826}
{"molecule": "O=C1c2c(O)ccc(O)c2C(=O)c2c(NCCNCCO)ccc(NCCNCCO)c21", "observed.value": 62.2}
{"molecule": "CN1CCN2c3ncccc3Cc3ccccc3C2C1 (stereo unspecified)", "observed.value": -2.74}

Specify reported growth inhibition for the molecule shown: C[C@]12CC[C@@H]3c4ccc(O)cc4CC[C@H]3[C@@H]1C[C@@H](O)[C@@H]2O
-2.64

Specify reported growth inhibition for the molecule shown: CCNC(=O)CCC/C=C\C[C@@H]1[C@@H](/C=C/[C@@H](O)CCc2ccccc2)[C@H](O)C[C@@H]1O
0.795

Specify reported growth inhibition for the molecule shown: O=C(c1ccccc1)c1ccc2n1CCC2C(=O)O (stereo unspecified)
1.07

Specify reported growth inhibition for the molecule shown: Cn1cnc([N+](=O)[O-])c1Sc1ncnc2[nH]cnc12
15.9

Specify reported growth inhibition for the molecule shown: CCCc1nn(C)c2c(=O)[nH]c(-c3cc(S(=O)(=O)N4CCN(C)CC4)ccc3OCC)nc12
0.246

* * *

growth inhibition overview
- Test system: DIPGX29
- procedure.text: growth inhibition (% activity, log2 RLU normalised to DMSO / staurosporine); higher = more growth inhibition
- test.settings: 33 µM
Give the value in % but do not write % after it.

Below, 4 compounds whose answers are already recorded.
{"compound": "O=C(O[C@H]1CN2CCC1CC2)N1CCc2ccccc2[C@@H]1c1ccccc1", "measured.target": "DIPGX29", "recorded.endpoint": "growth inhibition", "readout.unit": "%", "observed.value": 1.49}
{"compound": "C[C@@H]1[C@H](O)[C@@H](C)/C=C/C=C/C=C/C=C/C=C/C=C/C=C/[C@H](O[C@@H]2O[C@H](C)[C@@H](O)[C@H](N)[C@@H]2O)C[C@@H]2O[C@](O)(C[C@@H](O)C[C@@H](O)[C@H](O)CC[C@@H](O)C[C@@H](O)CC(=O)O[C@H]1C)C[C@H](O)[C@H]2C(=O)O", "measured.target": "DIPGX29", "recorded.endpoint": "growth inhibition", "readout.unit": "%", "observed.value": 1.5}
{"compound": "CNC1CCCN(c2c(F)cc3c(=O)c(C(=O)O)cn(C4CC4)c3c2OC)C1 (stereo not given)", "measured.target": "DIPGX29", "recorded.endpoint": "growth inhibition", "readout.unit": "%", "observed.value": -0.899}
{"compound": "C[C@@H]1CC(=O)NN=C1c1ccc(NN=C(C#N)C#N)cc1", "measured.target": "DIPGX29", "recorded.endpoint": "growth inhibition", "readout.unit": "%", "observed.value": 1.15}

Alright, here's another compound for you.
Specify reported growth inhibition for the compound shown: NC(=O)c1ncn([C@@H]2O[C@H](CO)[C@@H](O)[C@H]2O)n1
-0.559
